The measurements presented in this section are drawn from paper PMC10935503.

molecular target: CYP2D6 (Homo sapiens, UniProt P10635)
Sequence (P10635 whole entry): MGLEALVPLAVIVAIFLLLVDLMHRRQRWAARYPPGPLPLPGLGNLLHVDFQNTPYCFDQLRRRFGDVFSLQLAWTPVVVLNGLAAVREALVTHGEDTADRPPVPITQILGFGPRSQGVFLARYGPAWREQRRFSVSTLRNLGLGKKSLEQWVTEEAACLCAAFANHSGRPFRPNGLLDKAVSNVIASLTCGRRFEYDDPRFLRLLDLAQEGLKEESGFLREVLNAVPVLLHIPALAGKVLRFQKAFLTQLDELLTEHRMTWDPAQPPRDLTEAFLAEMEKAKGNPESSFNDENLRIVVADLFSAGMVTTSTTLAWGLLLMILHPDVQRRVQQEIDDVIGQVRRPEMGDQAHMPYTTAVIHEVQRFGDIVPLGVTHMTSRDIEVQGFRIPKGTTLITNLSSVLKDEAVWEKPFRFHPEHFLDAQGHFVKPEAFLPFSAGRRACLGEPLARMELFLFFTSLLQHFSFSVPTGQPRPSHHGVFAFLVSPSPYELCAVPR
pIC50: −log10 of the molar value.
outcome measure: pIC50

INSERT INTO assay_data (compound, measured_on, observed) VALUES
  ('Cc1cc(/C=C/C#N)cc(C)c1Oc1nc(NC2CCN(Cc3ccc(S(N)(=O)=O)cc3)CC2)nc2c1SCCC2 [compound 23h]', 'CYP2D6 (Homo sapiens, UniProt P10635)', 4.43);

----------
Target chain: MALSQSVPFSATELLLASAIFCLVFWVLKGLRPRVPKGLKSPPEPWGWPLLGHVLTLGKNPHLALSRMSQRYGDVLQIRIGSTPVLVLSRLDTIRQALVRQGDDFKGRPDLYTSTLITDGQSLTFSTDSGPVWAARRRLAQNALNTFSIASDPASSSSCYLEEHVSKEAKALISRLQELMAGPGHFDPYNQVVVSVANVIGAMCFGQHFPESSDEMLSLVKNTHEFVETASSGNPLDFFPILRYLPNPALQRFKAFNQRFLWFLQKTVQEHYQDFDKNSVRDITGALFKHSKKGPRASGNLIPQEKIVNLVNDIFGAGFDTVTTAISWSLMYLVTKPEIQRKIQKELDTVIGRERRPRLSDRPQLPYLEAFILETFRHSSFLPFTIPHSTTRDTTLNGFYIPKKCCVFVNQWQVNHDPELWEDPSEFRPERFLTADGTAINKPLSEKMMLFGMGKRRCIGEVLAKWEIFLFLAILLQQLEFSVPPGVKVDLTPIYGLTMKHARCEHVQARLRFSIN
pIC50: −log10 of the molar value.
outcome measure: pIC50

INSERT INTO measurements (compound, outcome_measure, observed) VALUES
  ('Cc1cc(/C=C/C#N)cc(C)c1Oc1nc(NC2CCN(Cc3ccc(S(N)(=O)=O)cc3)CC2)nc2c1SCCC2 [compound 23h]', 'pIC50', '< 4.30');
